As shown below, each of these binders has a reported OD450 value.
Biological target: T1, human MSLN-R3-his protein (human, UniProt Q13421 487-598)
T1 construct: Made in HEK293E cells, purified on nickel column; also called hMSLN-R3-his; human MSLN-R3 protein; not shown: His tag
T1 sequence (Q13421 495-606): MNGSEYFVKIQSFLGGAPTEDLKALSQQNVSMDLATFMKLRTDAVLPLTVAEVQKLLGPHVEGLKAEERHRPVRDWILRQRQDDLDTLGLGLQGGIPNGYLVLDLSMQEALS
Test: ELISA, coated antigen, antibody 0.01 nM

| Binder | Quantity Kind | Result |
| --- | --- | --- |
| S009-F4-94.15 chimeric antibody (antibody, human IgG1, kappa, V domains shown, Human-murine chimeric antibody: murine VH/VL on human IgG1 heavy and kappa light constant regions) VH: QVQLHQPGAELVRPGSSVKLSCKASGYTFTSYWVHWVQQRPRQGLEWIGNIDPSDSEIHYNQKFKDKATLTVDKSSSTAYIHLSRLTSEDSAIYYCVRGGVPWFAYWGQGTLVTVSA VL: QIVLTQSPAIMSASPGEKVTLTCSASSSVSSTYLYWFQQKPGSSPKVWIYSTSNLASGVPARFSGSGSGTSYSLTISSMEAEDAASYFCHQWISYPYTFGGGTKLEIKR | OD450 | 0.07 |
| S009-F6-76.1 chimeric antibody (antibody, human IgG1, kappa, V domains shown, Human-murine chimeric antibody, human IgG1/kappa constant regions) VH: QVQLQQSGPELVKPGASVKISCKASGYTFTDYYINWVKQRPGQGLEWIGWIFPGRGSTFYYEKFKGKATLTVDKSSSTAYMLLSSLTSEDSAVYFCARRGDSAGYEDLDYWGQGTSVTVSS VL: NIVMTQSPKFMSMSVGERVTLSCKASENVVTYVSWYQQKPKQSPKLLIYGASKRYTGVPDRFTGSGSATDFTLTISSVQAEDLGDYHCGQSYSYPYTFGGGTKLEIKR | OD450 | 0.04 |
| S009-F4-127.10 chimeric antibody (antibody, human IgG1, kappa, V domains shown, Human-murine chimeric antibody, human IgG1/kappa constant regions) VH: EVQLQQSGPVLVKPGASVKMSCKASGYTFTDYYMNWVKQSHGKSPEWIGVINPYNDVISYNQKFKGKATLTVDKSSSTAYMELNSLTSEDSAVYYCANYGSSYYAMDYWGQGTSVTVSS VL: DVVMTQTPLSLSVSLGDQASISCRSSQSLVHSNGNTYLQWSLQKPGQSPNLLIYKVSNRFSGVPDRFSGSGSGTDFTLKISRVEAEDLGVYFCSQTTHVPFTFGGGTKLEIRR | OD450 | 0.41 |

Moving on to the next binder.
# input Return reported OD450; argument: Tab106 (YP218, hIgG1) (antibody, V domains shown, Control: YP218 VH and VL recombined into human IgG1 CH and CL expression vectors; also called YP218 human IgG1 antibody) VH: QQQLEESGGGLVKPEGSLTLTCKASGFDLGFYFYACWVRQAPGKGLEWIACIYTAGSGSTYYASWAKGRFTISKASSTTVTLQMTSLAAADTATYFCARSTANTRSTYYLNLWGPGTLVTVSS VL: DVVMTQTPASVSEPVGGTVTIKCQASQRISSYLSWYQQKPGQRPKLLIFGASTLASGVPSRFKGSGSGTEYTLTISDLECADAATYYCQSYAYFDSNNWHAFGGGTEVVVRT
# output 0.18

Origin of the recorded values: patent US20250250357A1
